Ref: patent US20220204497A1

System: A549 cells
TEST_DETAILS: Cell viability by MTT method in A549 cells
Format: cell-based
Parameters: concentration or dose not given beside the values
PARTICULARS: 72 hours treatment
VALUE_TYPE: Cell Viability (% inhibition) (A549) (%)
Give bare numbers, in %.

Record excerpt, results attached:
                              sample_smiles  endpoint_unit  experimental_result
0  Cc1ccc(S(=O)(=O)N[C@@H](CO)C(=O)Nc2ccc(N3CCOCC3)cc2)cc1              %                16.62
1  Cc1ccc(S(=O)(=O)N[C@@H](CCC(=O)OCc2ccccc2)C(=O)Nc2ccc(N3CCOCC3)cc2)cc1              %                40.15

For every listed record, write down its Cell Viability (% inhibition) (A549).
1. O=C(OCc1ccccc1)[C@H](Cc1c[nH]c2ccccc12)NS(=O)(=O)c1ccc(C(F)(F)F)nc1
2. Cc1ccc(S(=O)(=O)N[C@@H](CC(C)C)C(=O)Nc2ccc(N3CCC(C)CC3)nc2)cc1

1. 97.48
2. 78.3

For every listed record, write down its Cell Viability (% inhibition) (A549).
1. Cc1ccc(S(=O)(=O)N[C@@H](Cc2ccc(C(=O)c3ccccc3)cc2)C(=O)Nc2ccc(N3CCOCC3)cc2)cc1
2. Cc1ccc(S(=O)(=O)N[C@@H](CC(C)C)C(=O)N2CCS(=O)(=O)CC2)cc1
3. CC(C)c1ccc(S(=O)(=O)N[C@@H](Cc2c[nH]c3ccccc23)C(=O)Nc2ccc(N3CCOCC3)cc2)cc1

1. 0.35
2. 15.98
3. 73.98
